- test summary: Bioanalytical assessment of plasma and brain concentrations after 6 Hz assay
- Type: in vivo, mouse
- measurement parameters: Scn8a^N1768D/+, mouse, in vivo, 10 mg/kg, Study18028, 10 mg/kg, SCN8A mouse 6HZ; read-out: Mean [Brain]
property label: concentration at 2 h (µM)
Use µM as the unit, but write only the number.

# input What does the data say about its concentration at 2 h? Entry: COC[C@@H](NC(C)=O)C(=O)NCc1ccccc1 [lacosamide, Lacosamide, reference compound]
# output 7.58

---

- test summary: Bioanalytical assessment of plasma and brain concentrations after rat DC-MES assay
- Assay type: in vivo
- measurement parameters: rat, brain, oral, 10 mg/kg, Study18058, 10 mg/kg, Rat DC-MES; read-out: Mean [Brain]
property label: concentration at 2 h (µM)
Use µM as the unit, but write only the number.

# input What does the data say about its concentration at 2 h? Entry: NC(=O)N1c2ccccc2C=Cc2ccccc21 [carbamazepine, Carbamazepine, reference compound]
# output 4.24

---

- test summary: Bioanalytical assessment of plasma and brain concentrations after rat DC-MES assay
- Type: in vivo
- measurement parameters: rat, brain, oral, 300 mg/kg, Study18085, 300 mg/kg, Rat DC-MES; read-out: Mean [Brain]
property label: concentration at 2 h
Record the result as number plus unit.

# input What does the data say about its concentration at 2 h? Entry: NC(=O)N1c2ccccc2C=Cc2ccccc21 [carbamazepine, Carbamazepine, reference compound]
# output 79.9 µM

---

- test summary: Bioanalytical assessment of plasma and brain concentrations after mouse DC-MES assay
- Type: in vivo
- measurement parameters: mouse, plasma, intraperitoneal, 2 mg/kg, Study17136, 2 mg/kg, WT mouse DC-MES acute; read-out: Mean [Palsma]
property label: concentration at 2 h (µM)
Use µM as the unit, but write only the number.

# input What does the data say about its concentration at 2 h? Entry: O=C1NC(=O)C(c2ccccc2)(c2ccccc2)N1 [phenytoin, Phenytoin]
# output 3.65

---

- measured on: UniProt P35499
- test summary: Qube 384 automated patch-clamp, inactivated-state inhibition
pIC50: −log10 of the molar value.
property label: pIC50

# input What does the data say about its pIC50? Entry: Cc1cc(S(=O)(=O)Nc2cscn2)c(F)cc1N(C)[C@H]1CCN(Cc2ccccc2)C1 [NBI-921352]
# output < 4.52

---

- measured on: mNaV1.6 (Mus musculus, UniProt Q9WTU3)
- Construct: expression vector containing the full-length cDNA coding for specific human and mouse sodium channel α-subunit
- Sequence (Q9WTU3 whole entry): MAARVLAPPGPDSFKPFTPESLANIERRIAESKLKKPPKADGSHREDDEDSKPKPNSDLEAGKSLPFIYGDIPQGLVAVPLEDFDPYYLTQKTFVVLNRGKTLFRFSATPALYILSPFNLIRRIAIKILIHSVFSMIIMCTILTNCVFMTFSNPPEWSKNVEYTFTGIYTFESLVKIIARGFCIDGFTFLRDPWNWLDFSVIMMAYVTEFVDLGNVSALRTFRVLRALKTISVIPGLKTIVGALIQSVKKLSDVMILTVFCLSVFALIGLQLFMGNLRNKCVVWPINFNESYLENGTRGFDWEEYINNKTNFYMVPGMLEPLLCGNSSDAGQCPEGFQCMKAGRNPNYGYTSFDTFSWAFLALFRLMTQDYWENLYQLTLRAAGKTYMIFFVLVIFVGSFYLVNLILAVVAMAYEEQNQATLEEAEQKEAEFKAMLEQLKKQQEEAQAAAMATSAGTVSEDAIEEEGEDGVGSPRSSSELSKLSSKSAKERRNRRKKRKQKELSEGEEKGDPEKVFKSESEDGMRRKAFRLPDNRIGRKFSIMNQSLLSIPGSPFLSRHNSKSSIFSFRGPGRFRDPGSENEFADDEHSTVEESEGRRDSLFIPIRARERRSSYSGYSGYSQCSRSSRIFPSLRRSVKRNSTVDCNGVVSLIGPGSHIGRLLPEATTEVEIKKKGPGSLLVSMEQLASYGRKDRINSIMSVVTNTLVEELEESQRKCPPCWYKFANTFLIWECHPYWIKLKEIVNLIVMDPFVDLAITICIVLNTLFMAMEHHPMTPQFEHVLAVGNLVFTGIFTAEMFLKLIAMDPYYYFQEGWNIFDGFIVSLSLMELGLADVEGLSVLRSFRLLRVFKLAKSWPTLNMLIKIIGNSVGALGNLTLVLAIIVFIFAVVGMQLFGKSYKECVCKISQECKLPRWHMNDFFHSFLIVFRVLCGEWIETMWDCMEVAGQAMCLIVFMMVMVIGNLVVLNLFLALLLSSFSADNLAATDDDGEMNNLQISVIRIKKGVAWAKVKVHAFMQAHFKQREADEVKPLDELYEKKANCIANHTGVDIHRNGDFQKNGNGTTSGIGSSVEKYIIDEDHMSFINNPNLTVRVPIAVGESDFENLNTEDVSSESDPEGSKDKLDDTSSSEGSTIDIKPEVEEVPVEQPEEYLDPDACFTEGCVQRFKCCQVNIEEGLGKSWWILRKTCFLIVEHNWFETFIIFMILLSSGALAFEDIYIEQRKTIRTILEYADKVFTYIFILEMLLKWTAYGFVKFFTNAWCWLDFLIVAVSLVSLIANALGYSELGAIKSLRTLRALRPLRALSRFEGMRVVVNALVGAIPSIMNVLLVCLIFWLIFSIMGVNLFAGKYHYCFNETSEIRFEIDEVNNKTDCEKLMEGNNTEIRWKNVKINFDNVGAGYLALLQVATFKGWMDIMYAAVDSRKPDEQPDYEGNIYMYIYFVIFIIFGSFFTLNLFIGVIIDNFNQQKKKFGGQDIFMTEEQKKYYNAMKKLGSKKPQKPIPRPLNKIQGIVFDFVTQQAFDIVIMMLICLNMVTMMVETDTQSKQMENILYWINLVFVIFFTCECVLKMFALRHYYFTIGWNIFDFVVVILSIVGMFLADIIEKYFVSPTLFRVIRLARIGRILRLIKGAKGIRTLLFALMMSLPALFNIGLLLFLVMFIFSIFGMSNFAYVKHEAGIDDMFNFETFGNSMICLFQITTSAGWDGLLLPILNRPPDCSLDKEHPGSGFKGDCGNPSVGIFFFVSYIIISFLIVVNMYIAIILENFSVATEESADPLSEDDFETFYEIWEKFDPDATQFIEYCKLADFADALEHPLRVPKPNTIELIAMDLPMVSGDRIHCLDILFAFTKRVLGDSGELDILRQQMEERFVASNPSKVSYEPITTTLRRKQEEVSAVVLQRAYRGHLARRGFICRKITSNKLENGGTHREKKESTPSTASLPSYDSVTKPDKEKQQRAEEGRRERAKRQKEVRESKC
- Sequence (Q92913 1-192 isoform Q92913-2 partner): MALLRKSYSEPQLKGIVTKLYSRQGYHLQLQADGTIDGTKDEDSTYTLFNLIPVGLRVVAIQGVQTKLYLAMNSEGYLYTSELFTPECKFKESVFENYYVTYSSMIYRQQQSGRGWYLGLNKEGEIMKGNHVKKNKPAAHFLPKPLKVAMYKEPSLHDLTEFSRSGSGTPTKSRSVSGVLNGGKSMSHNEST
- test summary: Qube 384 automated patch-clamp, inactivated-state inhibition
- measurement parameters: Vh -45 mV
property label: pIC50
The quantity pIC50 is defined as the negative base-10 logarithm of the molar concentration.

# input What does the data say about its pIC50? Entry: `Cc1cc(S(=O)(=O)Nc2cscn2)c(F)cc1N(C)[C@H]1CCN(Cc2ccccc2)C1`
# output 7.24

---

- test summary: Bioanalytical assessment of plasma and brain concentrations after mouse DC-MES assay
- Format: in vivo
- measurement parameters: mouse, brain, oral, 10 mg/kg, Study17131, 10 mg/kg, WT mouse DC-MES acute; read-out: Mean [Brain]
- Protocol: Approximately 0.5 mL of blood was collected from each mouse at the end of the assay via cardiac puncture under deep anesthesia. The blood samples were collected in a syringe and transferred to tubes containing EDTA. Blood was stored at 4 °C until centrifuged within 30 min of collection. […] Extraction of plasma samples was carried out by protein precipitation using acetonitrile. […] The samples were analyzed by UHPLC-ESI-MS/MS as described below. […]
property label: concentration at 2 h (µM)
Use µM as the unit, but write only the number.

# input What does the data say about its concentration at 2 h? Entry: NC(=O)N1c2ccccc2C=Cc2ccccc21 [carbamazepine, Carbamazepine, reference compound]
# output 18.3

---

- test summary: Bioanalytical assessment of plasma and brain concentrations after 6 Hz assay
- Type: in vivo, mouse
- measurement parameters: Scn8a^N1768D/+, mouse, plasma, po, 2 mg/kg, Scn8a mice, 2 mg/kg PO single dose, after assay 2 hr post dose; read-out: Mean [Plasma]
property label: concentration at 2 hr (nM)
Use nM as the unit, but write only the number.

# input What does the data say about its concentration at 2 hr? Entry: Cc1cc(S(=O)(=O)Nc2cscn2)c(F)cc1N(C)[C@H]1CCN(Cc2ccccc2)C1 [NBI-921352]
# output 1.08

---

- test summary: Bioanalytical assessment of plasma and brain concentrations after mouse DC-MES assay
- Format: in vivo
- measurement parameters: mouse, plasma, po, 5 mg/kg, WT mice, 5 mg/kg PO single dose, 2 h; read-out: Mean [Plasma]
property label: concentration at 2 h
Record the result as number plus unit.

# input What does the data say about its concentration at 2 h? Entry: `Cc1cc(S(=O)(=O)Nc2cscn2)c(F)cc1N(C)[C@H]1CCN(Cc2ccccc2)C1`
# output 36.8 nM

---

- test summary: Bioanalytical assessment of plasma and brain concentrations after mouse DC-MES assay
- Type: in vivo
- measurement parameters: mouse, plasma, po, 10 mg/kg, WT mice, 10 mg/kg PO every 12 hr, day 7, 2 h after 13th dose; read-out: Mean [Plasma]
property label: concentration at 2 h (nM)
Use nM as the unit, but write only the number.

# input What does the data say about its concentration at 2 h? Entry: `Cc1cc(S(=O)(=O)Nc2cscn2)c(F)cc1N(C)[C@H]1CCN(Cc2ccccc2)C1`
# output 151

---

- test summary: Bioanalytical assessment of plasma and brain concentrations after mouse DC-MES assay
- Format: in vivo
- measurement parameters: mouse, plasma, po, 3 mg/kg, WT mice, 3 mg/kg PO single dose, 2 h; read-out: Mean [Plasma]
property label: concentration at 2 h (nM)
Use nM as the unit, but write only the number.

# input What does the data say about its concentration at 2 h? Entry: Cc1cc(S(=O)(=O)Nc2cscn2)c(F)cc1N(C)[C@H]1CCN(Cc2ccccc2)C1 [NBI-921352]
# output 11.2

---

- test summary: Bioanalytical assessment of plasma and brain concentrations after rat DC-MES assay
- Format: in vivo
- measurement parameters: rat, brain, po, 1 mg/kg, sheet Figure 5G, 5H, 5I (rats), 1 mg/kg PO every 12 hr, day 7, 2 hr after 13th dose; read-out: Mean [Brain]
property label: concentration at 2 h

# input What does the data say about its concentration at 2 h? Entry: `Cc1cc(S(=O)(=O)Nc2cscn2)c(F)cc1N(C)[C@H]1CCN(Cc2ccccc2)C1`
# output 12.5 nM

---

- test summary: Bioanalytical assessment of plasma and brain concentrations after rat DC-MES assay
- Assay type: in vivo
- measurement parameters: rat, brain, oral, 3 mg/kg, Study18058, 3 mg/kg, Rat DC-MES; read-out: Mean [Brain]
property label: concentration at 2 h (nM)
Use nM as the unit, but write only the number.

# input What does the data say about its concentration at 2 h? Entry: NC(=O)N1c2ccccc2C=Cc2ccccc21 [carbamazepine, Carbamazepine, reference compound]
# output 979

---

- measured on: hNaV1.6 R850Q (Homo sapiens, UniProt Q9UQD0, R850Q)
- Construct: expression vector containing the full-length cDNA coding for specific human and mouse sodium channel α-subunit
- Sequence (Q9UQD0 whole entry R850Q): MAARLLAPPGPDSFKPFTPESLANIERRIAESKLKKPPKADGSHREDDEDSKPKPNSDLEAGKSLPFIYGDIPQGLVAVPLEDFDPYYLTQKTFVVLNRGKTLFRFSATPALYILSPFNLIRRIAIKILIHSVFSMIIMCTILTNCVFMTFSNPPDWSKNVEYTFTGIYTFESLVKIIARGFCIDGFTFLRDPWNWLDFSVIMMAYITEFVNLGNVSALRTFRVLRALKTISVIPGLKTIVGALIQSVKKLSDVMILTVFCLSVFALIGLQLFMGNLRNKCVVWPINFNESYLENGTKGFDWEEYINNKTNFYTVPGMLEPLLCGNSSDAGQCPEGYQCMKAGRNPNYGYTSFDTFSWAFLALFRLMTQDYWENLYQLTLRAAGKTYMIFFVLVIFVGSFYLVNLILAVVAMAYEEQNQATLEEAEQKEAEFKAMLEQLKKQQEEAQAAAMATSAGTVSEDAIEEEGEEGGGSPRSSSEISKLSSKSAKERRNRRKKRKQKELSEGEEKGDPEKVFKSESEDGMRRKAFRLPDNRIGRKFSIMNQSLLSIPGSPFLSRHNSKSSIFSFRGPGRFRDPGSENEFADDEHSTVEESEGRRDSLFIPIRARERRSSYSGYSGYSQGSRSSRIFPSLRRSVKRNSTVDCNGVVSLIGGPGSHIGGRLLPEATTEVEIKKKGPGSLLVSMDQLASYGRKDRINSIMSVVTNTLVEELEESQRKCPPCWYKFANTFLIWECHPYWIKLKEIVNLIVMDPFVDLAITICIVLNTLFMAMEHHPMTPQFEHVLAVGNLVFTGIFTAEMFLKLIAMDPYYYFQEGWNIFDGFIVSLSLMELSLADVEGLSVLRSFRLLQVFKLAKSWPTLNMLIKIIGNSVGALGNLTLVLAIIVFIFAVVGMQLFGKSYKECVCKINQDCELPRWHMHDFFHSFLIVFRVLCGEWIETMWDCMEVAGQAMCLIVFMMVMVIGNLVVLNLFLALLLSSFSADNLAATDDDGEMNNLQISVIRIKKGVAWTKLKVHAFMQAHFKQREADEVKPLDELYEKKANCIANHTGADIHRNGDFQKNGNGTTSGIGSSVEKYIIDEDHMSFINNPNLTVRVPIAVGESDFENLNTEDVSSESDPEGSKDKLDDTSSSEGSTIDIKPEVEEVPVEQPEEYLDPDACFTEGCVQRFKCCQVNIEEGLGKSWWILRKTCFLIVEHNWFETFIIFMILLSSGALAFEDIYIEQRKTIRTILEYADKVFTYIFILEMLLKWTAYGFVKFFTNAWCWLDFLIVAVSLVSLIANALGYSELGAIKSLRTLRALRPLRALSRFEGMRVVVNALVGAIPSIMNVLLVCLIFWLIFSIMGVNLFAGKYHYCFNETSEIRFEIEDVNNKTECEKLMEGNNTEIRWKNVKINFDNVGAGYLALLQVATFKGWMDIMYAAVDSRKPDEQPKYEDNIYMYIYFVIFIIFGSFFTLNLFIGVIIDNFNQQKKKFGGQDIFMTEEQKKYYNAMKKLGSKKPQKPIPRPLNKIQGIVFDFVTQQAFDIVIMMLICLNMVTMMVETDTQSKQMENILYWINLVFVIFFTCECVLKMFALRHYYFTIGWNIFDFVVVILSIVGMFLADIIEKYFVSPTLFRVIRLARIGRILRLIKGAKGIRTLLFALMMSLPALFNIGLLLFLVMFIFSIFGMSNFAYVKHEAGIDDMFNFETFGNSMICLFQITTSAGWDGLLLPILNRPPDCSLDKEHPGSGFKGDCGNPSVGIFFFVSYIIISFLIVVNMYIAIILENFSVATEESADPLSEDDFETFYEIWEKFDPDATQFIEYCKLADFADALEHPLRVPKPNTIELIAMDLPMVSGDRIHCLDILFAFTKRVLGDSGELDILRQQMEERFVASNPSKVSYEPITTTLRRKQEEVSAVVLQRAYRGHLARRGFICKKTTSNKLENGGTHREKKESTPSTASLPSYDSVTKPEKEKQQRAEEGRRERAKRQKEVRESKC
- test summary: Automated patch-clamp, patient-identified variant in Expi293F cells
property label: pIC50
The quantity pIC50 is defined as the negative base-10 logarithm of the molar concentration.

# input What does the data say about its pIC50? Entry: `Cc1cc(S(=O)(=O)Nc2cscn2)c(F)cc1N(C)[C@H]1CCN(Cc2ccccc2)C1`
# output 7.68

---

- test summary: Bioanalytical assessment of plasma and brain concentrations after 6 Hz assay
- Assay type: in vivo, mouse
- measurement parameters: Scn8a^N1768D/+, mouse, plasma, po, 300 mg/kg, Scn8a mice, 300 mg/kg PO single dose, after assay 2 hr post dose; read-out: Mean [Plasma]
property label: concentration at 2 hr (µM)
Use µM as the unit, but write only the number.

# input What does the data say about its concentration at 2 hr? Entry: `Cc1cc(S(=O)(=O)Nc2cscn2)c(F)cc1N(C)[C@H]1CCN(Cc2ccccc2)C1`
# output 31.5

---

- test summary: Bioanalytical assessment of plasma and brain concentrations after mouse DC-MES assay
- Format: in vivo
- measurement parameters: mouse, in vivo, 3 mg/kg, Study18063, 3 mg/kg, WT mouse DC-MES acute; read-out: Mean [Brain]
property label: concentration at 2 h (nM)
Use nM as the unit, but write only the number.

# input What does the data say about its concentration at 2 h? Entry: COC[C@@H](NC(C)=O)C(=O)NCc1ccccc1 [lacosamide, Lacosamide, reference compound]
# output 1260

---

- test summary: Bioanalytical assessment of plasma and brain concentrations after 6 Hz assay
- Assay type: in vivo, mouse
- measurement parameters: Scn8a^N1768D/+, mouse, plasma, oral, 10 mg/kg, Study16152, 10 mg/kg, SCN8A mouse 6HZ; read-out: Mean [Palsma]
property label: concentration at 2 h (µM)
Use µM as the unit, but write only the number.

# input What does the data say about its concentration at 2 h? Entry: NC(=O)N1c2ccccc2C=Cc2ccccc21 [carbamazepine, Carbamazepine, reference compound]
# output 15.4
